Listed here are compounds together with their documented TGI.
Test system: SW-620 colon
MEASUREMENT_PROTOCOL: NCI tumour cell line growth inhibition, 48 h

COMPOUND: O=C(O)C(CCc1ccccc1)N1C(=O)c2ccccc2C1=O (stereo not drawn)
TGI: > 100 µM
//
COMPOUND: Cn1cc(-c2csc(-c3c[nH]c4ccccc34)n2)c2cccnc21
TGI: > 72.5 µM
//
COMPOUND: O=C(NCCn1ccnn1)Nc1ccccc1
TGI: > 100 µM

TGI for "CC1(C)OCC[C@@H]1[Si](C)(C)C" ?
> 100 µM

I am curious: what TGI value has been reported for "CN(C)CCNc1ccc2nnn3c4ccc(O)cc4c(=O)c1c23" ?
15.6 µM

Requested read-out: TGI. Entry: "O=S(=O)(Nc1nccs1)c1ccc(Nc2nc(-c3cccs3)nc3ccc(I)cc23)cc1"
> 59.6 µM

// lookup TGI for "c1ccc(P2c3ccccc3Nc3ccccc32)cc1"
> 100 µM

// query TGI value for entry "O=c1oc2c([N+](=O)[O-])cc([N+](=O)[O-])cc2c2ccccc12"
> 100 µM

Requested field: TGI. Item: CC(=O)Nc1ccc(C(=O)NN2C(=O)C(Cl)C2c2cc(Br)cc(Br)c2O)cc1 (stereo not drawn)
> 100 µM

Any idea what its TGI is? The compound is "O=S(=O)(Nc1cc(F)cc(F)c1)c1ccc(-c2cnc(C3CC3)o2)cc1"
> 100 µM

# input compound: "CC(C)C(=O)NCC[C@@H](CNC(=O)OC(C)(C)C)NC(=O)OC(C)(C)C" ; wanted: its TGI
> 100 µM

What measured TGI goes with "Cc1ccc(I)cc1N=C=S" ?
> 100 µM

Given "COc1ccc2c(c1OC)OC[C@@H](C1=CC(=O)C=C(O)C1=O)C2" , state its recorded TGI.
26.2 µM

----------
Tested on: SNB-75 CNS
MEASUREMENT_PROTOCOL: NCI tumour cell line growth inhibition, 48 h
MEASURED_PROPERTY: TGI

Please review the entries below; each comes with its answer.
MOLECULE: S=C1Nc2cnc3ccccc3c2SC1c1ccccc1 (centres undefined)
READOUT_VALUE: > 100 µM
//
MOLECULE: COC(=O)c1ccc(C2SC(C)C(=O)N2NC(=O)C(O)c2ccccc2)cc1 (centres undefined)
READOUT_VALUE: > 100 µM
//
MOLECULE: CC(C)OP(=O)(OC(C)C)/C(F)=N/Nc1ccc([N+](=O)[O-])cc1
READOUT_VALUE: > 100 µM

Now for a further molecule.
Find TGI (SNB-75 CNS) for the entry O=C(O)C(CO)N=Cc1nc(-c2ccccc2)oc1O (centres undefined)
> 100 µM

----------
System: SN12C renal
MEASUREMENT_PROTOCOL: NCI tumour cell line growth inhibition, 48 h
Measured TGI by item

Sample answers from the record:
MOLECULE: CN1C(=O)N(C)C2(O)c3ccccc3C(=O)C12O (configuration not stated)
TGI: > 100 µM

MOLECULE: CCN(CC)C(=S)SS(=O)(=O)c1ccc(N)cc1
TGI: > 100 µM

Reported TGI, molecule "COc1ccc(/C=C/C(=O)c2sc(Nc3ccc([N+](=O)[O-])cc3)nc2C)cc1" : ____
> 100 µM

Fill in the blank: the reported TGI of "CC(C)NCCCNc1c2ccccc2nc2cccc([N+](=O)[O-])c12" is ____.
0.15 µM

Looking for the measured TGI of COc1ccc(C(O)c2cc3c(N)c(C(=O)Nc4ccccc4)sc3nc2C)cc1 (configuration not stated) , can you help?
29.5 µM

What does the data say about its TGI? Entry: "Cc1ccccc1Cn1nc2ccccc2cc1=O"
> 100 µM

Consider the molecule "CN(C)[C@@H]1C(=O)C(C(=O)NCN2CCN(C(=N)N=C(N)N)CC2)=C(O)[C@@]2(O)C(=O)C3=C(O)c4c(O)cccc4[C@@](C)(O)[C@H]3C[C@@H]12" and give its measured TGI.
15.1 µM

Bench note: what TGI did CCCCCCCCCCCCCCCC(=O)Nc1ccn(C2CC(OP(=O)(O)OCC3OC(n4cc(F)c(=O)[nH]c4=O)CC3OC(C)=O)C(CO)O2)c(=O)n1 (configuration not stated) show?
> 49.9 µM
